# Emax annotations
SUBJECT_OF_TEST: human Cystic Fibrosis Transmembrane Conductance Regulator (CFTR) harboring the ΔF508 mutation (Homo sapiens, UniProt P13569, DEL508-508)
Construct: expressed in transfected cells; host or cells: H441 carcinoma line (G418-selected)
Sequence (P13569 with tags, fused parts or gaps DEL508-508): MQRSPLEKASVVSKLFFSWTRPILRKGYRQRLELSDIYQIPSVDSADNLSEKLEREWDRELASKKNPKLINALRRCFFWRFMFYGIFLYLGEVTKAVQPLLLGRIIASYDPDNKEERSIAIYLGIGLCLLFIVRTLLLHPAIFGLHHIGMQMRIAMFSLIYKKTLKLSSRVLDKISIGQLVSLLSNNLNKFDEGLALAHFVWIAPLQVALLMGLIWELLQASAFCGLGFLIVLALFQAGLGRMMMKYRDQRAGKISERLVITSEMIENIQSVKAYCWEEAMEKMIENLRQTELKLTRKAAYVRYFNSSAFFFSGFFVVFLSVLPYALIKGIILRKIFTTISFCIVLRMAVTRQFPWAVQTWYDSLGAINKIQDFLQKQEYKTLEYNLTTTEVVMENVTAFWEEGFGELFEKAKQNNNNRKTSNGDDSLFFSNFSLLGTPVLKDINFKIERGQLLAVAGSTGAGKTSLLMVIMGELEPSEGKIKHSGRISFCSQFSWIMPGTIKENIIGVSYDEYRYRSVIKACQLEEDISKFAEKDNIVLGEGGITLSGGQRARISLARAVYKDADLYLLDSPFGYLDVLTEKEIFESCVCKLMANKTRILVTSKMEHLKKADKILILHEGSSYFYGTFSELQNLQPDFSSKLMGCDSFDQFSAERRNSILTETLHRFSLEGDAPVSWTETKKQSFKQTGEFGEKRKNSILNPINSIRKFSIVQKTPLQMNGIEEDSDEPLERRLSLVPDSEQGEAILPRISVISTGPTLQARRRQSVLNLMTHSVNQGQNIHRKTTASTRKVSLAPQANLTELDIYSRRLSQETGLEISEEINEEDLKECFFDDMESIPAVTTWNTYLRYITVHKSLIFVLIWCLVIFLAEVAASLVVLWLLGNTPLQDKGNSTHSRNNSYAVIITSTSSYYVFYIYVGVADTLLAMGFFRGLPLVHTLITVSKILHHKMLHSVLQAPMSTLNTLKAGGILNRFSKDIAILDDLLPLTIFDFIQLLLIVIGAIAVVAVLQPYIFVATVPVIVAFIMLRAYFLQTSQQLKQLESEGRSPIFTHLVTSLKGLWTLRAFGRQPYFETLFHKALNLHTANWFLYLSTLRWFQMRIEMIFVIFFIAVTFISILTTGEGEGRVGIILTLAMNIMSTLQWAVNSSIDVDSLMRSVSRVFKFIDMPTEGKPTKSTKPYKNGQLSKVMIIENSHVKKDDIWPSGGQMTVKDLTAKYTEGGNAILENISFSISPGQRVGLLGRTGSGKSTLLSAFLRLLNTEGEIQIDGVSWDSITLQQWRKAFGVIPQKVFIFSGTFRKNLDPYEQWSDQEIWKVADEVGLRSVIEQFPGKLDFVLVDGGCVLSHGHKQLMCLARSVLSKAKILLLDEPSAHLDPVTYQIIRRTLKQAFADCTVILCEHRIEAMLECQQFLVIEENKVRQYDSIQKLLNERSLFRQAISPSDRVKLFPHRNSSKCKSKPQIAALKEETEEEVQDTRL
TEST_NAME: H441 cell ΔF508-CFTR-HRP cell surface assay (Emax and EC50)
Type: cell-based
MEASUREMENT_PARAMETERS: NCI-H441, NA = Not active
Reply numerically in %, unit not repeated.

Examples from the recorded data:
MOLECULE	Emax (%)
COc1ccc2c(OCc3ccc(SC(F)(F)F)cc3)c(C(=O)N[C@H](C(=O)O)C3CCCC3)ccc2c1	26
O=C(N[C@H](C(=O)O)C(c1ccccc1)c1ccccc1)c1ccc2ccccc2c1OCc1ccc(Cl)c(Cl)c1	40.4
Cc1cc2c(OCc3ccc(C(F)(F)F)cc3)c(C(=O)N[C@H](C(=O)O)C(C)(C)C)ccc2cc1F	248
CC(Oc1c(C(=O)N[C@@H](Cc2ccccc2)C(=O)O)ccc2ccccc12)c1ccc(C(F)(F)F)cc1 (stereo partly shown)	10.5
O=C(N[C@H](C(=O)O)C1CCCC1)c1ccc2ccccc2c1OCc1ccc(C(F)(F)F)cc1	118
CCC(C)(C)[C@H](NC(=O)c1ccc2cc(C)ccc2c1OCc1ccc(C(F)(F)F)cc1)C(=O)O	97

Here's the next entry for you.
Q: Fill blank: measured Emax of the molecule CC(C)(SC1CC2CCC1C2)[C@H](NC(=O)c1ccc2ccccc2c1OCC1CCCCC1)C(=O)O (stereo partly shown) is ____.
Result: 152

###

SUBJECT_OF_TEST: human Cystic Fibrosis Transmembrane Conductance Regulator (CFTR) harboring the ΔF508 mutation (Homo sapiens, UniProt P13569, DEL508-508)
Construct: expressed in transfected cells; host or cells: H441 carcinoma line (G418-selected)
TEST_NAME: H441 cell ΔF508-CFTR-HRP cell surface assay (Emax and EC50)
Assay type: cell-based
MEASUREMENT_PARAMETERS: NCI-H441, NA = Not active
REPORTED_METRIC: Emax (%)
Write the answer as a number in %, unit excluded.

Examples with answers:
MOLECULE	Emax / %
O=C(N[C@H](C(=O)O)C12CC(C(F)(F)F)(C1)C2)c1ccc2cc(F)ccc2c1OCc1ccc(OC(F)(F)F)cc1	37.2
CC(C)(C)C[C@H](NC(=O)c1ccc2ccccc2c1OCc1ccc(OC(F)F)cc1)C(=O)O	4.7
CC(C)(C)[C@H](NC(=O)c1ccc2ccc(-c3cscn3)cc2c1OCc1ccc(C(F)(F)F)cc1)C(=O)O	159
CC(C)(C)[C@@H](NC(=O)c1ccc2ccc(C(F)(F)F)cc2c1OCc1ccc(OC(F)(F)F)cc1)C(=O)O	57.1
O=C(N[C@H](C(=O)O)C(c1ccccc1)c1ccccc1)c1ccc2ccccc2c1OCc1ccc(OC(F)(F)F)cc1	14.3
CC(Oc1c(C(=O)N[C@@H](Cc2ccccc2)C(=O)O)ccc2ccccc12)c1ccc(Br)cc1 (stereo partly drawn)	4

Q: Look up Emax for this molecule: CC(C)(C)[C@H](NC(=O)c1ccc2ccccc2c1OCC1(C(F)(F)F)CC1)C(=O)O
Result: 74

Q: # iterate: CC(C)(SCC1CC1(F)F)[C@H](NC(=O)c1ccc2ccccc2c1OCc1ccc(C(F)(F)F)cc1)C(=O)O (stereo partly drawn)
Result: 138

Q: For CCC(C)(C)[C@H](NC(=O)c1ccc2c(F)cc(C)cc2c1OCc1ccc(OC(F)(F)F)cc1)C(=O)O then?
Result: 339

Q: Can you check CC(C)(C)C[C@H](NC(=O)c1ccc2cc(F)ccc2c1OCc1nc2ccccc2s1)C(=O)O next?
Result: 86.8

Q: Next molecule: CC1(C(NC(=O)c2ccc3ccccc3c2OCc2ccc(S(F)(F)(F)(F)F)cc2)C(=O)O)CCCCC1 (stereo not drawn)
Result: 112

Q: Same thing, different molecule: CC(C)(C)C[C@H](NC(=O)c1ccc2ccccc2c1OCc1ccc(SC(F)(F)F)cc1)C(=O)O
Result: 84

Q: Now consider CC(C)(C)[C@H](NC(=O)c1ccc2ccc(Cl)cc2c1OCc1ccc(OC(F)(F)F)cc1)C(=O)O .
Result: 275

Q: Record: CC(C)(C)C[C@H](NC(=O)c1ccc2ccccc2c1OCc1nc2ccccc2s1)C(=O)O
Result: 112

Q: Cool, now CCC(C)(C)[C@H](NC(=O)c1ccc2ccccc2c1OCc1ccc(SC(F)(F)F)cc1)C(=O)O
Result: 115

###

SUBJECT_OF_TEST: human Cystic Fibrosis Transmembrane Conductance Regulator (CFTR) harboring the ΔF508 mutation (Homo sapiens, UniProt P13569, DEL508-508)
Construct: expressed in transfected cells; host or cells: H441 carcinoma line (G418-selected)
TEST_NAME: H441 cell ΔF508-CFTR-HRP cell surface assay (Emax and EC50)
Format: cell-based
MEASUREMENT_PARAMETERS: NCI-H441, NA = Not active
REPORTED_METRIC: Emax (%)
Unit % implied. Number only.

MOLECULE	UNIT_ABBREVIATION	NUMERIC_VALUE
Cc1ccc2ccc(C(=O)N[C@H](C(=O)O)C(C)(C)C)c(OCc3ccc(OC(F)(F)F)cc3)c2c1 [Example 249]	%	305
O=C(N[C@@H](Cc1ccccc1)C(=O)O)c1ccc2ccccc2c1OCc1ccc(Cl)c(Cl)c1 [Example 99]	%	83.1
CC(C)(SC1CCCC1)[C@H](NC(=O)c1ccc2ccccc2c1OCc1ccc(S(C)(=O)=O)cc1)C(=O)O [Example 171]	%	16.4
CCC(C)(C)[C@H](NC(=O)c1ccc2cc(OC)ccc2c1OCc1ccc(C(F)(F)F)cc1)C(=O)O [Example 83]	%	58.9
O=C(N[C@H](C(=O)O)c1cccc2ccccc12)c1ccc2ccccc2c1OCc1ccc(C(F)(F)F)cc1 [Example 142]	%	86.9
CCC(C)(C)[C@H](NC(=O)c1ccc2ccccc2c1OCc1ccc(C(F)(F)F)cc1)C(=O)O [Example 78]	%	242
O=C(N[C@@H](Cc1c(Cl)cccc1Cl)C(=O)O)c1ccc2ccccc2c1OCc1ccc(C(F)(F)F)cc1 [Example 152]	%	122
CC(C)C#CCOc1c(C(=O)N[C@H](C(=O)O)C(C)(C)C)ccc2cc(F)ccc12 [Example 224]	%	119

Q: What measured Emax goes with CCC(C)(C)[C@H](NC(=O)c1ccc2ccc(OC)cc2c1OCc1ccc(C(F)(F)F)cc1)C(=O)O [Example 309] ?
Result: 349

Q: CC(C)(C)C#CCOc1c(C(=O)N[C@H](C(=O)O)C(C)(C)C)ccc2cc(F)ccc12 [Example 266] , same question.
Result: 149

Q: Now this one: CC(C)(C)[C@H](NC(=O)c1ccc2ccccc2c1OCc1nc2ccccc2s1)C(=O)O [Example 58]
Result: 139

Q: Let us now turn to CCC(C)(C)C(NC(=O)c1ccc2ccc(C)cc2c1OCc1ccc(OC(F)(F)F)cc1)C(=O)O (centres unmarked) [Example 276]
Result: 309

Q: Now this one: O=C(N[C@H](C(=O)O)C(c1ccccc1)c1ccccc1)c1ccc2ccccc2c1OCc1ccc(C(F)(F)F)cc1 [Example 126]
Result: 214

Q: Further, for Nc1ccc2c(OCc3ccc(C(F)(F)F)cc3)c(C(=O)N[C@H](C(=O)O)C3CCCC3)ccc2c1 [Example 187] ?
Result: 70.8

Q: Same read-out for CC1([C@H](NC(=O)c2ccc3cc(F)ccc3c2OCc2ccc(C(F)(F)F)cc2)C(=O)O)CCCCC1 [Example 40] ?
Result: 100

Q: Let us now turn to CC(C)(C)[C@H](NC(=O)c1ccc2ccccc2c1OCc1ccc(S(=O)(=O)C(F)(F)F)cc1)C(=O)O [Example 57]
Result: 87.9

Q: Do the same for CC(C)(C)[C@H](NC(=O)c1ccc2cc(F)ccc2c1OCC1CCC(F)(F)CC1)C(=O)O [Example 76] please
Result: 58.3

###

SUBJECT_OF_TEST: human Cystic Fibrosis Transmembrane Conductance Regulator (CFTR) harboring the ΔF508 mutation (Homo sapiens, UniProt P13569, DEL508-508)
TEST_NAME: H441 cell ΔF508-CFTR-HRP cell surface assay (Emax and EC50)
REPORTED_METRIC: EC50 (nM)
Give just the number in nM; leave the unit off.

// known answers, use as guide
COMPOUND	UNIT_ABBREVIATION	EC50
O=C(N[C@H](C(=O)O)C(c1ccccc1)c1ccccc1)c1ccc2cc(F)ccc2c1OCc1nc2ccccc2s1	nM	900
COC(C)(C)[C@H](NC(=O)c1ccc2ccccc2c1OCc1ccc(C(F)(F)F)cc1)C(=O)O	nM	1400
CC(c1ccccc1)C(NC(=O)c1ccc2ccccc2c1OCc1ccc(C(F)(F)F)cc1)C(=O)O (stereo not drawn)	nM	1100
O=C(N[C@@H](Cc1c(Cl)cccc1Cl)C(=O)O)c1ccc2ccccc2c1OCc1ccc(C(F)(F)F)cc1	nM	7200

Q: # query: EC50 of entry O=C(N[C@H](C(=O)O)C1CCCCC1)c1ccc2ccccc2c1OCc1ccc(C(F)(F)F)cc1
Result: 500

Q: Please give the result for CC1([C@H](NC(=O)c2ccc3cc(F)ccc3c2OCc2ccc(C(F)(F)F)cc2)C(=O)O)CCCCC1 too.
Result: 300

Q: What would you report for CC(C)(C)[C@H](NC(=O)c1ccc2ccccc2c1OCc1ccc(S(=O)(=O)C(F)(F)F)cc1)C(=O)O ?
Result: 1500

Q: Cool, now COc1ccc2c(OCc3ccc(SC(F)(F)F)cc3)c(C(=O)N[C@H](C(=O)O)C3CCCC3)ccc2c1
Result: 1600

Q: Repeat with CC(C)(C)[C@H](NC(=O)c1ccc2ccccc2c1OCc1ccc2c(c1)OCO2)C(=O)O
Result: 2500

Q: Now the same for O=C(N[C@H](C(=O)O)C12CC(C(F)(F)F)(C1)C2)c1ccc2cc(F)ccc2c1OCc1ccc(C(F)(F)F)cc1
Result: 1700

Q: # iterate: C[C@@H](OCc1ccccc1)C(NC(=O)c1ccc2ccccc2c1OCC1CCCCC1)C(=O)O (stereo partly drawn)
Result: 10900
